This collection of values is drawn from the nanobody polyreactivity screen of Harvey et al. (2022).

Test: yeast display, Sf9 membrane polyspecificity reagent, FACS + sequencing; frameworks hold sequencing errors
REPORTED_METRIC: polyreactivity (PSR sort gate)

Known polyreactivity (PSR sort gate) results, listed for orientation:
CONSTRUCT_SEQUENCE: LGQVVESGGGLVQAGGSLRLSCAASGRIFHRNTMGWYRQAPGKEWELVAAISGSTGRTYYADSVKGRFPISRDNAKTTVYLQMNSLKPEDTAVYYCAKVYRRSGSVARYDYGGQGTQVTVSS
polyreactivity (PSR sort gate): high polyreactivity

CONSTRUCT_SEQUENCE: QVQLVESGGGLVQAGGSLRLSCAASGRIFQTYAMGWYRQAPGKERDLVASITSGVDTYYADSVKGRFTISRDNAKNTVYLQMNSLKPEDNAVYYCAAEPYRTVTAYRYSLYWYNYWGQGTQVTVSS
polyreactivity (PSR sort gate): high polyreactivity

CONSTRUCT_SEQUENCE: QVQLVESGGCLVQAGGSLRLSCAASGSTFYVYTMGWYTQAPGKESELVAAISWTDGDTYYADSVKGRFTISRDTAKKTVYLEMNSLKPEDTAVYYCAADIAWLWWYGPGYDYWGQGTQVTVSS
polyreactivity (PSR sort gate): low polyreactivity

CONSTRUCT_SEQUENCE: QVQLVESGGGLVQAGGSLRLSCAASGDIYDAYAMGWYRQAPGKERELVAAISRSGGSTYYSDSVKGRFTISRDNAKNTVYLLMNSLKPEDTAVYYCATRFSRRYVRYDYWGQGTQVTVSS
polyreactivity (PSR sort gate): high polyreactivity

Now for a further sequence.
I'd like to know its polyreactivity (PSR sort gate). The sequence in question is QVQLVESGGGLVQAGGSLRLSCAASGSIFYYYAMGWYRQAPGKERELVAAIDSGGSTYYADSVKGRFTISRDNAKNTVYLQMNSLKPEDTAVYYCAADTYWFVYYGYDYWGLGTQVTVSS
low polyreactivity
